System: A. baumannii
Assay: MIC, broth microdilution, CDC/FDA Antibiotic Resistance Isolate Bank (Example 7, Tables 9, 13, 14)
Type: cell-based, Acinetobacter baumannii
Settings: Acinetobacter baumannii, KUB No. 5720, AR Bank #287; read-out: MIC

| compound | MIC [µg/mL] |
| --- | --- |
| CN(C)c1cc(NC(=O)CNC(C)(C)C)c(O)c2c1C[C@H]1C[C@H]3[C@H](N(C)C)C(O)=C(C(N)=O)C(=O)[C@@]3(O)C(O)=C1C2=O [Tigecycline, tigecycline] | 0.5 |
| C[C@H]1[C@H](NC(=O)/C(=N\OC(C)(C)C(=O)O)c2csc(N)n2)C(=O)N1S(=O)(=O)O [Aztreonam, aztreonam] | 32 |
| NCC[C@H](O)C(=O)N[C@@H]1C[C@H](N)[C@@H](O[C@H]2O[C@H](CN)[C@@H](O)[C@H](O)[C@H]2O)[C@H](O)[C@H]1O[C@H]1O[C@H](CO)[C@@H](O)[C@H](N)[C@H]1O [Amikacin, amikacin] | 64 |
| C[C@H]1COc2c(N3CCN(C)CC3)c(F)cc3c(=O)c(C(=O)O)cn1c23 [Levofloxacin, levofloxacin] | 16 |
| CO/N=C(\C(=O)N[C@@H]1C(=O)N2C(C(=O)[O-])=C(C[n+]3ccn4ncccc43)CS[C@H]12)c1nsc(N)n1 [Cefozopran, cefozopran] | 32 |
| CC(C)(O/N=C(\C(=O)N[C@@H]1C(=O)N2C(C(=O)[O-])=C(C[N+]3(CCNC(=O)c4ccc(O)c(O)c4Cl)CCCC3)CS[C@H]12)c1csc(N)n1)C(=O)O [Cefiderocol, cefiderocol] | 0.5 |

###

Parameter: pKi. Scope: all listed entries.
Molecular target: OXA-23 (Acinetobacter baumannii)
Sequence (Q9L4P2 18-273): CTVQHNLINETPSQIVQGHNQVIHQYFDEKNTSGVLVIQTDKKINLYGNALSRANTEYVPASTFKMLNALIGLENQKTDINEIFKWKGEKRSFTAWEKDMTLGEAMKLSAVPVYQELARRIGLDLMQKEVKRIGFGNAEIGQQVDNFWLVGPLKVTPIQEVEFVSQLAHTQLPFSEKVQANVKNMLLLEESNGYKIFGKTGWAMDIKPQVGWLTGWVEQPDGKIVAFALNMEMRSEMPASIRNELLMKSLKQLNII
Experiment: Ki,app against β-lactamase (Example 1, Table 1)
Format: biochemical
pKi: −log10 of the molar value.
readoutType: pKi

| compound | readoutType | measuredResult |
| --- | --- | --- |
| O=C(O)[C@H]1/C(=C/CO)O[C@@H]2CC(=O)N21 [Clavulanate, clavulanate] | pKi | 6.40 |
| CC1(C)[C@H](C(=O)O)N2C(=O)C[C@H]2S1(=O)=O | pKi | 6.17 |

###

Biological target: KPC-33 (Klebsiella pneumoniae, UniProt Q9F663, D178Y)
Sequence (Q9F663 25-293 D178Y): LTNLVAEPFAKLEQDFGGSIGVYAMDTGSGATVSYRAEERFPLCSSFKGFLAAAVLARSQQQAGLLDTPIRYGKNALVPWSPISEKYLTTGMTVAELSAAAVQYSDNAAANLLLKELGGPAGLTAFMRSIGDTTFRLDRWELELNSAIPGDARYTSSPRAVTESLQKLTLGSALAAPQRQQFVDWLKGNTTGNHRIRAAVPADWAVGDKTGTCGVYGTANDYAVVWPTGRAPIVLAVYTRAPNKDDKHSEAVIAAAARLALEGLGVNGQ
Test: biochemical
Experimental: After stirring, the resultants were preincubated for 30 minutes at 37°C. The reporter substrate solution was incubated at 37°C for 15 minutes or more, dispensed at 100 µL/well, and measured for a change in absorbance by a microplate reader at 37°C. For each measured concentration of the positive control and the inhibitor, an initial rate (µmol/L/sec) was determined from a time to be analyzed and a change in product amount. […]
pKi: −log10 of the molar value.
readoutType: pKi

| compound | measuredResult |
| --- | --- |
| O=C(O)C[C@@H]1CC[C@H](NC(=O)Cc2cccs2)B(O)O1 [Vaborbactam, vaborbactam] | 5.34 |

###

Parameter: pKi. Scope: all listed entries.
Target: KPC-38 (Klebsiella pneumoniae)
Sequence (Q9F663 25-293 limits assumed): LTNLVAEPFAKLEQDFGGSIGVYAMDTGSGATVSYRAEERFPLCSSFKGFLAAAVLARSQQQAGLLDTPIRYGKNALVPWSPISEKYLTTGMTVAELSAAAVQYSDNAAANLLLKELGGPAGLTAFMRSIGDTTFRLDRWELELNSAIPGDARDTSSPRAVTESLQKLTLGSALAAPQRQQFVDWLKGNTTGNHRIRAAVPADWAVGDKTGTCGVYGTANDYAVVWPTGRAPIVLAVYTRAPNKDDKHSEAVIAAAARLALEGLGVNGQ
pKi: −log10 of the molar value.

| molecule | pKi |
| --- | --- |
| O=C(O)C[C@@H]1CC[C@H](NC(=O)Cc2cccs2)B(O)O1 | 7.32 |
| C[C@]1(Cn2ccnn2)[C@H](C(=O)O)N2C(=O)C[C@H]2S1(=O)=O | 6.95 |
| CC1(C)[C@H](C(=O)O)N2C(=O)C[C@H]2S1(=O)=O | 6.39 |
| O=C(O)[C@H]1/C(=C/CO)O[C@@H]2CC(=O)N21 [Clavulanate, clavulanate] | 7.11 |
